experiment: gradient 5% acetonitrile 3 min, to 50% in 2 min, to 85% in 15 min, held 3 min, 100 µL/min; conditions: column: Zorbax Extend-C18 2.1 x 50 mm; eluents: water / acetonitrile, 0.1% formic acid
metric name: RP-LC retention time (s)

>>> recorded_value("Cc1[nH]c(=O)[nH]c(=O)c1CCC(=O)N1CCC(c2nc3ccccc3s2)CC1")
592
>>> recorded_value("Cn1ncc(NC(=O)Cc2ccc(Cl)cc2)c(N2CCOCC2)c1=O")
772
>>> recorded_value("Cc1nn(CC(=O)NCCCN(C)C)c(=O)c2nc(-c3ccccc3)sc12")
604
>>> recorded_value("CSc1ccc(CNC(=O)C2CCCN(c3ncnc4nn(-c5ccc(C)cc5)cc34)C2)cc1 (stereo not given)")
750
>>> recorded_value("Cc1ccc(-c2c(C(=O)NCc3ccco3)nc3ccccn23)cc1")
1150
>>> recorded_value("CCOc1ccc(-c2cc3c(=O)n(Cc4nc(-c5ccccc5)no4)ncn3n2)cc1")
720
>>> recorded_value("CNC(=O)c1nn(C)c2c1C(C)(C)Cc1cnc(Nc3ccc(N4CCN(C)CC4)cc3)nc1-2")
656
>>> recorded_value("CCC(=O)N1CCN(c2nc3c(s2)CC(C(=O)Nc2ccc(C)cc2Cl)CC3)CC1 (stereo not given)")
607
>>> recorded_value("O=C(NC1CCN(C(=O)c2cc(-c3cccs3)[nH]n2)CC1)c1cccs1")
695
>>> recorded_value("Cc1ccc(-c2cc(N3CCOCC3)c3cc(NC(=O)C4CC4)ccc3n2)cc1")
701
>>> recorded_value("COc1ccc(C(C)NC(=O)CCc2ccc3c(ccn3C)c2)cc1OC (stereo not given)")
819
>>> recorded_value("O=C(Nc1ccc(CCc2nc3ccccc3n2-c2ccccc2)cc1)c1cnccn1")
694
>>> recorded_value("Cc1ccc(CN2CC(Oc3ccc(-c4noc(C5CCOCC5)n4)cc3)C2)o1")
686
>>> recorded_value("C=CCNc1nnc(SCC(=O)N2CCC(C(N)=O)CC2)s1")
572
>>> recorded_value("CCN(CCN(C)C)c1ccc(C(=O)O)cc1NS(=O)(=O)c1ccc(C)cc1")
623
>>> recorded_value("Cc1sc(NC(=O)CCc2ccccc2)nc1-c1ccc2c(c1)NC(=O)C(C)O2 (stereo not given)")
687
>>> recorded_value("COc1ccccc1N1CCN(C(=O)C2CCCN(c3nccc4sc(C)cc34)C2)CC1 (stereo not given)")
711
>>> recorded_value("CC(=O)NC(C)c1nc(-c2ccc(Cl)cc2)no1 (stereo not given)")
777
>>> recorded_value("CCCNC(=O)N1CCCC1c1nc(-c2ccc(OC)cc2)no1 (stereo not given)")
758
>>> recorded_value("CCNC(=O)C1CCN(c2nc3ccc(-c4cccs4)nc3s2)CC1")
815
